Assign IC50 to each entry below.
Target: human CXCR3A (Homo sapiens (Human), UniProt P49682)
Sequence (P49682 whole entry): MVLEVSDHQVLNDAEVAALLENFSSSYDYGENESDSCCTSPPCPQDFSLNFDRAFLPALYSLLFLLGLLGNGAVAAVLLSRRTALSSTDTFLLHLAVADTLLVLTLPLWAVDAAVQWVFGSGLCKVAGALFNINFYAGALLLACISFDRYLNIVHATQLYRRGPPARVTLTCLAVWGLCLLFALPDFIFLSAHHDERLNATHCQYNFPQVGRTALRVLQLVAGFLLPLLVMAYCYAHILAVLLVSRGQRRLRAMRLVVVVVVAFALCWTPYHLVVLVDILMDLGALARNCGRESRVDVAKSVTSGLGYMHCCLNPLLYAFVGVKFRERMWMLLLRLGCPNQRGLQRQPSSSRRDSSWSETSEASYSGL
Assay: FLIPR assay
Details: CHO-K1 cells expressing the human CXCR3A coupled to Galpha(16); CXCL10 agonist 20 nM; Fluo-4-AM fluorescence; mean values if determined several times
Express it in nM; write the number only.

Input C[C@@H]1CN(c2sc(C(F)(F)F)nc2-c2nc3ccccc3[nH]2)CCN1C(=O)Cn1cc2c(n1)CCN(C)C2 [Example 215] . Output IC50: 2

Input C[C@@H]1CN(c2scnc2-c2nc3ccccc3[nH]2)CCN1C(=O)Cc1noc2ccccc12 [Example 130] . Output IC50: 3

Input O=C(Cn1ccc2cc(F)ccc21)N1CCN(c2scnc2-c2nc3ccccc3[nH]2)CC1 [Example 55] . Output IC50: 4

Input C[C@@H]1CN(c2sc(C(F)(F)F)nc2-c2nc3ccccc3[nH]2)CCN1C(=O)Cn1cnc2c1CCN(C)C2 [Example 209] . Output IC50: 3

Input C[C@@H]1CN(c2sc(C(F)(F)F)nc2-c2nc3ccccc3[nH]2)CCN1C(=O)Cn1cnc2cnccc21 [Example 206] . Output IC50: 2

Input Cc1nn(CC(=O)N2CCN(c3sc(C(F)(F)F)nc3-c3nc4ccccc4[nH]3)C[C@H]2C)c(C)c1CN(C)C [Example 214] . Output IC50: 2

###

Assign IC50 to each entry below.
Target: UniProtKB P49682
Assay: Receptor internalization assay
Type: cell-based
Details: human whole blood; final CXCL10 concentration 9 nM; 30 min 37° C.; CXCR3 cell surface expression on CD3 positive cells, flow cytometer; read-out: Internalization IC50
Express it in nM; write the number only.

Input "C[C@@H]1CN(c2sc(C(F)(F)F)nc2-c2nc3ccccc3[nH]2)CCN1C(=O)Cn1cnc2cnccc21" . Output IC50: 260

Input "CC(=O)c1ccc2[nH]c(-c3nc(C(F)(F)F)sc3N3CCN(C(=O)Cn4cnc5cccnc54)[C@H](C)C3)nc2c1" . Output IC50: 98

Input "Cc1nc(C)n(CC(=O)N2CCN(c3sc(C(F)(F)F)nc3-c3nc4ccc(CCN5CCCC5)cc4[nH]3)C[C@H]2C)n1" . Output IC50: 531

Input "C[C@@H]1CN(c2sc(-c3ccccc3F)nc2-c2nc3ccccc3[nH]2)CCN1C(=O)Cn1cnc2cccnc21" . Output IC50: 4490

Input "C[C@@H]1CN(c2scnc2-c2nc3ccccc3[nH]2)CCN1C(=O)Cc1ccccc1-n1nccn1" . Output IC50: 1610

Input "C[C@@H]1CN(c2sc(C(F)(F)F)nc2-c2nc3ccccc3[nH]2)CCN1C(=O)Cn1ccc(C(F)(F)F)n1" . Output IC50: 210

Input "CN(C)C[C@@H]1CN(c2scnc2-c2nc3ccccc3[nH]2)CCN1C(=O)Cn1cnc2cccnc21" . Output IC50: 98

Input "C[C@@H]1CN(c2sc(C(F)(F)F)nc2-c2nc3ccccc3[nH]2)CCN1C(=O)Cn1cnc2cccnc21" . Output IC50: 66

Input "Cc1ccc2[nH]c(-c3ncsc3N3CCN(C(=O)Cn4c(=O)n(C)c5ccccc54)CC3)nc2c1" . Output IC50: 540

Input "Cc1nc(C)n(CC(=O)N2CCN(c3sc(C(F)(F)F)nc3-c3nc4ccc(N5CCOCC5)cc4[nH]3)C[C@H]2C)n1" . Output IC50: 376

Input "O=C(CN1C(=O)COc2ccccc21)N1CCN(c2scnc2-c2nc3ccccc3[nH]2)CC1" . Output IC50: 3120

Input "C[C@@H]1CN(c2sc(C(F)(F)F)nc2-c2nc3ccccc3[nH]2)CCN1C(=O)Cn1cnc(Br)n1" . Output IC50: 332
